Give IC50 for every item shown.
system: dengue virus type 2; assay: Antiviral activity against DENV2 infected in African green monkey Vero E6 cells assessed as inhibition of virus induced cytopathic effect measured after 96 hrs by immunofluorescent staining based inverted microscopic analysis; assay type: functional, organism-based; details: Vero C1008, 96 h

Request: For the molecule `CN1C[C@H]2C[C@@H](C1)c1ccc(NCc3ccc(O)cc3)c(=O)n1C2` , what IC50 is on record?
Response: 2300 nM

Request: For the molecule CN1C[C@H]2C[C@@H](C1)c1ccc(NCc3cn(C)c(=O)n(C)c3=O)c(=O)n1C2 (single isomer, unassigned) , what IC50 is on record?
Response: < 100 nM

Request: For the molecule `Cn1cc(CNc2ccc3n(c2=O)C[C@@H]2C[C@H]3CN(C(=O)Nc3ccccc3)C2)c(=O)n(C)c1=O` , what IC50 is on record?
Response: < 100 nM

Request: For the molecule `C=CCNC(=S)N1C[C@H]2C[C@@H](C1)c1cccc(=O)n1C2` , what IC50 is on record?
Response: < 100 nM

###

tested on: Influenza A virus; assay: Antiviral activity against Influenza A virus; assay type: functional, organism-based
reportedEndpoint: IC50

Request: For the compound `Cn1cc(CNc2ccc3n(c2=O)C[C@@H]2C[C@H]3CN(C(=O)Nc3ccccc3)C2)c(=O)n(C)c1=O` , what IC50 is on record?
Response: > 3000 nM

Request: For the compound `CN1C[C@H]2C[C@@H](C1)c1ccc([N+](=O)[O-])c(=O)n1C2` , what IC50 is on record?
Response: > 3000 nM

Request: For the compound `CN1C[C@H]2C[C@@H](C1)c1ccc(NCc3ccc(O)cc3)c(=O)n1C2` , what IC50 is on record?
Response: > 3000 nM

Request: For the compound `C=CCNC(=S)N1C[C@H]2C[C@@H](C1)c1cccc(=O)n1C2` , what IC50 is on record?
Response: > 3000 nM

Request: For the compound CN1C[C@H]2C[C@@H](C1)c1ccc(NCc3cn(C)c(=O)n(C)c3=O)c(=O)n1C2 (single isomer, unassigned) , what IC50 is on record?
Response: > 3000 nM

###

Give pIC50 for every item shown.
system: dengue virus type 2; experiment: Antiviral activity against Dengue virus 2 infected in African green monkey Vero E6 cells assessed as inhibition of viral replication at attachment stage measured after 96 hrs by DAPI staining based fluorescence microscopic analysis; type: functional, organism-based; settings: Vero C1008, 96 h
Note on pIC50: it is the negative log10 of concentration, concentration in mol/L.

Request: For the molecule CN1C[C@H]2C[C@@H](C1)c1ccc(NCc3cn(C)c(=O)n(C)c3=O)c(=O)n1C2 (single isomer, unassigned) , what pIC50 is on record?
Response: 5.03

Request: For the molecule `Cn1cc(CNc2ccc3n(c2=O)C[C@@H]2C[C@H]3CN(C(=O)Nc3ccccc3)C2)c(=O)n(C)c1=O` , what pIC50 is on record?
Response: 5.19

Request: For the molecule `C=CCNC(=S)N1C[C@H]2C[C@@H](C1)c1cccc(=O)n1C2` , what pIC50 is on record?
Response: 6.50

Request: For the molecule `CN1C[C@H]2C[C@@H](C1)c1ccc([N+](=O)[O-])c(=O)n1C2` , what pIC50 is on record?
Response: 6.08

###

Give selectivity ratio for every item shown.
experiment: Selectivity index, ratio of CC50 for cytotoxicity in human A549 cells to IC50 for Antiviral activity against DENV2 infected in African green monkey Vero E6 cells; format: toxicity, cell-based

Request: For the compound `Cn1cc(CNc2ccc3n(c2=O)C[C@@H]2C[C@H]3CN(C(=O)Nc3ccccc3)C2)c(=O)n(C)c1=O` , what selectivity ratio is on record?
Response: > 106

Request: For the compound `CN1C[C@H]2C[C@@H](C1)c1ccc(NCc3ccc(O)cc3)c(=O)n1C2` , what selectivity ratio is on record?
Response: > 64.1

Request: For the compound CN1C[C@H]2C[C@@H](C1)c1ccc(NCc3cn(C)c(=O)n(C)c3=O)c(=O)n1C2 (single isomer, unassigned) , what selectivity ratio is on record?
Response: > 75.8

Request: For the compound `CN1C[C@H]2C[C@@H](C1)c1ccc([N+](=O)[O-])c(=O)n1C2` , what selectivity ratio is on record?
Response: > 64.9

Request: For the compound `C=CCNC(=S)N1C[C@H]2C[C@@H](C1)c1cccc(=O)n1C2` , what selectivity ratio is on record?
Response: > 500

###

assay: Selectivity index, ratio of CC50 for cytotoxicity in African green monkey Vero E6 cells to IC50 for Antiviral activity against DENV2 infected in African green monkey Vero E6 cells; format: toxicity, cell-based, Vero C1008; settings: read-out: Ratio CC50/IC50
reportedEndpoint: selectivity ratio

Request: For the compound `C=CCNC(=S)N1C[C@H]2C[C@@H](C1)c1cccc(=O)n1C2` , what selectivity ratio is on record?
Response: > 500

Request: For the compound `CN1C[C@H]2C[C@@H](C1)c1ccc([N+](=O)[O-])c(=O)n1C2` , what selectivity ratio is on record?
Response: > 500

Request: For the compound `Cn1cc(CNc2ccc3n(c2=O)C[C@@H]2C[C@H]3CN(C(=O)Nc3ccccc3)C2)c(=O)n(C)c1=O` , what selectivity ratio is on record?
Response: > 500

Request: For the compound CN1C[C@H]2C[C@@H](C1)c1ccc(NCc3cn(C)c(=O)n(C)c3=O)c(=O)n1C2 (single isomer, unassigned) , what selectivity ratio is on record?
Response: > 109

Request: For the compound `CN1C[C@H]2C[C@@H](C1)c1ccc(NCc3ccc(O)cc3)c(=O)n1C2` , what selectivity ratio is on record?
Response: > 21.7
